Biological target: Adenosine receptor A1 (Rattus norvegicus, UniProt P25099)
Sequence (P25099 whole entry): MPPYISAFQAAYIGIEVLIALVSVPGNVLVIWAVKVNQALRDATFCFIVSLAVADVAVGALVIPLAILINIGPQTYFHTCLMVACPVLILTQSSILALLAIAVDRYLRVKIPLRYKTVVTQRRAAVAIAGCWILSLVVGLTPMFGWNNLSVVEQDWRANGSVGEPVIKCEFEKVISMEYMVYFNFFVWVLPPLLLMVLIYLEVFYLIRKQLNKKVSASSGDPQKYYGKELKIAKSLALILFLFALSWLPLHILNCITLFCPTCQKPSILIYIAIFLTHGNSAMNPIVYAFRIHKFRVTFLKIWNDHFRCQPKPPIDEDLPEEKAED
Assay: Binding affinity to A1 adenosine receptor from rat cortical membrane in presence of [3H]R-(phenylisopropyl)-adenosine
I'd be grateful if you could share measured pKi for these entries.
Scale: negative log10 of molar concentration, which is what pKi denotes.

Which pKi value belongs to `CCCn1c(=O)[nH]c2cc(-c3ccccc3)[nH]c2c1=O` ?
7.41

Now the molecule `Cn1c(=O)c2c(cc(/C=C/c3ccccc3)n2O)n(C)c1=O`
6.25

Now the molecule `CCCn1c(=O)c2[nH]ccc2n(CCC)c1=O`
6.36

Now the molecule `Cn1c(=O)c2c(ccn2C)n(C)c1=O`
4.49

Now the molecule `Cn1c(=O)c2cc[nH]c2n(C)c1=O`
4.37

Now the molecule `CCCn1c(=O)c2[nH]c(-c3ccccc3)cc2n(CCC)c1=O`
7.89

Now the molecule `Cn1c(=O)c2c(cc(-c3ccc4ccccc4c3)n2O)n(C)c1=O`
6.66

Now the molecule `Cn1c(=O)c2[nH]c(-c3ccc4ccccc4c3)cc2n(C)c1=O`
7.59

----------
target: Adenosine A2 receptor (Rattus norvegicus) (UniProt P29276+P30543); test: Percent inhibition of [3H]5'-(N-ethylcarboximido)-adenosine (NECA) binding to A2 adenosine receptor; assay type: protein assay; parameters: concentration or dose not given beside the values; conditions: concentration not given here
Reported Endpoint: inhibition (%)
Quick reminder: number only, in %, skip the unit.

Which inhibition value belongs to `Cn1c(=O)c2c(cc(-c3cccc4ccccc34)n2O)n(C)c1=O` ?
38

Now the compound `Cn1c(=O)c2[nH]c(-c3cccc4ccccc34)cc2n(C)c1=O`
1.2

Now the compound `Cn1c(=O)c2c(cc(-c3cccc4ccccc34)n2C)n(C)c1=O`
22

Now the compound `Cn1c(=O)c2cc[nH]c2n(C)c1=O`
39

Now the compound `Cn1c(=O)c2[nH]c(-c3ccc4ccccc4c3)cc2n(C)c1=O`
34

----------
biological target: Adenosine A2 receptor (Rattus norvegicus, UniProt P29276+P30543); test: Binding affinity to A2 adenosine receptor from rat striatal membrane in presence of [3H]5'-(N-ethylcarboximido)-adenosine
I'd be grateful if you could share measured Ki for these entries.
Quick reminder: number only, in µM, skip the unit.

What is its Ki for Adenosine A2 receptor (Rattus norvegicus, UniProt P29276+P30543)? Entry: `CCCn1c(=O)c2c(ncn2C)n(CCC)c1=O`
10

Now the compound `Cn1c(=O)c2c(cc(-c3ccc4ccccc4c3)n2O)n(C)c1=O`
1

Now the compound `Cn1c(=O)c2c(cc(-c3ccccc3)n2C)n(C)c1=O`
14

Now the compound `CCCn1c(=O)[nH]c2cc[nH]c2c1=O`
18

Now the compound `Cn1c(=O)[nH]c2cc[nH]c2c1=O`
34

Now the compound `CCCn1c(=O)c2[nH]ccc2n(CCC)c1=O`
5.1

Now the compound `Cn1c(=O)c2c(ccn2C)n(C)c1=O`
72

Now the compound `Cn1c(=O)c2[nH]c(/C=C/c3ccccc3)cc2n(C)c1=O`
0.64

Now the compound `Cn1c(=O)c2c(cc(/C=C/c3ccccc3)n2C)n(C)c1=O`
0.26

Now the compound `CCCn1c(=O)c2[nH]c(N(C)C)cc2n(CCC)c1=O`
16

Now the compound `Cn1c(=O)c2[nH]ccc2n(C)c1=O`
12

Now the compound `Cn1c(=O)c2cc(-c3ccccc3)[nH]c2n(C)c1=O`
12

Now the compound `Cn1c(=O)c2c(nc(-c3ccccc3)n2C)n(C)c1=O`
25

Now the compound `Cn1c(=O)c2c(cc(-c3ccc4ccccc4c3)n2C)n(C)c1=O`
1.1

Now the compound `CCCn1c(=O)c2c(nc(-c3ccccc3)n2C)n(CCC)c1=O`
15

Now the compound `CCCn1c(=O)c2c(cc(-c3ccccc3)n2C)n(CCC)c1=O`
5.2

Now the compound `Cn1c(=O)c2c(cc(/C=C/c3ccccc3)n2O)n(C)c1=O`
1.8

Now the compound `Cn1c(=O)[nH]c2cc(-c3ccccc3)[nH]c2c1=O`
2

Now the compound `Cn1c(=O)c2cc(-c3ccccc3)n(C)c2n(C)c1=O`
40

Now the compound `CCCn1c(=O)c2c(ccn2C)n(CCC)c1=O`
13

Now the compound `CCCn1c(=O)c2[nH]c(-c3ccccc3)cc2n(CCC)c1=O`
0.45

Now the compound `Cn1c(=O)c2[nH]c(-c3ccccc3)cc2n(C)c1=O`
0.51

Now the compound `CCCn1c(=O)[nH]c2cc(-c3ccccc3)[nH]c2c1=O`
1.2

Now the compound Cn1c(=O)c2nc(-c3ccccc3)[nH]c2n(C)c1=O [8-PHENYL THEOPHYLLINE]
0.83

----------
target: Adenosine A2 receptor (Rattus norvegicus, UniProt P29276+P30543); assay: Binding affinity to A2 adenosine receptor from rat striatal membrane in presence of [3H]5'-(N-ethylcarboximido)-adenosine
I'd be grateful if you could share measured Ki for these entries.

What is its Ki for Adenosine A2 receptor (Rattus norvegicus, UniProt P29276+P30543)? Entry: `Cn1c(=O)c2c(cc(-c3cccc4ccccc34)n2C)n(C)c1=O`
> 30 µM

Now the compound `Cn1c(=O)c2[nH]c(-c3ccc4ccccc4c3)cc2n(C)c1=O`
> 0.5 µM

Now the compound `Cn1c(=O)c2[nH]c(-c3cccc4ccccc34)cc2n(C)c1=O`
> 30 µM

Now the compound `Cn1c(=O)c2c(cc(-c3cccc4ccccc34)n2O)n(C)c1=O`
> 100 µM

Now the compound `Cn1c(=O)c2cc[nH]c2n(C)c1=O`
> 250 µM
